target_desc: hPEPT1 (Homo sapiens, UniProt P46059)
Sequence (P46059 whole entry): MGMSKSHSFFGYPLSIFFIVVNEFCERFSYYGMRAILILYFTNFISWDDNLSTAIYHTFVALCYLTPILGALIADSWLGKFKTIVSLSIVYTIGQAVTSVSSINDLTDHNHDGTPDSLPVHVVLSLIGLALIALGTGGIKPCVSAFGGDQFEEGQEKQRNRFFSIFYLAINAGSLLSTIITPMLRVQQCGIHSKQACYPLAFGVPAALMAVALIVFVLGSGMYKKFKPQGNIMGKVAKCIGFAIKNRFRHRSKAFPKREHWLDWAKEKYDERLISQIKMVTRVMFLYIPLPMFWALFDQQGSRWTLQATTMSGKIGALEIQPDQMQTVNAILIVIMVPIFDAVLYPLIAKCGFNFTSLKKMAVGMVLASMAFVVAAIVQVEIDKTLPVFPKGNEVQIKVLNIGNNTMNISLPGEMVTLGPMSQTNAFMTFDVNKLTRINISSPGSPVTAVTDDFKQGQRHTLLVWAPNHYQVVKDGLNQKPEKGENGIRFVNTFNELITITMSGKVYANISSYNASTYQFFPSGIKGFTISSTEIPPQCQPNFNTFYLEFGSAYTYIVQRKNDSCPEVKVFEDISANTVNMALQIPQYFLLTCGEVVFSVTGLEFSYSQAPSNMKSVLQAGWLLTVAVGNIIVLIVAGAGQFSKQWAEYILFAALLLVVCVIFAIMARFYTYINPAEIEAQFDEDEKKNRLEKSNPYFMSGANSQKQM
protocol_details: [3H]Gly-Sar uptake inhibition in HeLa/hPEPT1 cells
Type: cell-based
Parameters: expressed in transfected cells; host or cells: HeLa
experimental_context: HeLa/hPEPT1 cells; mean ± sd, n = 2; read-out: IC50 of [3H]Gly-Sar uptake inhibition
Each item that follows carries a reported IC50.

Inquiry: Write down IC50 measured for item CCC(CC)O[C@@H]1C=C(C(=O)OC(C)OC(=O)[C@@H](N)C(C)C)C[C@H](NC(=N)N)[C@H]1NC(C)=O (stereo partly shown)
Reply text: 0.19 mM

---
Inquiry: State, in one line, measured IC50 of CC(=O)N[C@H]1[C@H]([C@H](O)[C@H](O)CO)OC(C(=O)O)=C[C@@H]1N=C(N)N
Reply text: > 30 mM

Inquiry: Quote IC50 reported for CC(=O)N[C@H]1[C@H]([C@H](O)[C@H](O)CO)OC(C(=O)OC(C)OC(=O)[C@@H](N)C(C)C)=C[C@@H]1NC(=N)N (stereo partly shown) please.
Reply text: 1.95 mM

Inquiry: Give IC50 for NC(C(=O)O)c1cccc(O)c1 (stereo not shown) [3-HPG, 3-hydroxyphenylglycine]
Reply text: > 5 mM
